assay: Pharmacokinetic assay in Balb/c mice (plasma and brain tissue); assay type: in vivo; conditions: male, Balb/c, mouse, brain, po, 5 mg/kg, Balb/c mice, 5 mg/kg p.o., brain tissue; read-out: Half-life t1/2 (converted)
Experimental endpoint: half-life (h)
Numbers only here, please. The scale is h.

Req: Indicate its recorded half-life; the molecule in question is C[C@@]1(O)CC[C@@]2(F)[C@H](CC[C@H]3[C@@H]4CC[C@H](C(=O)Cn5cc(C#N)cn5)[C@@]4(C)CC[C@@H]32)C1
Resp: 1.49

====

Each entry below lists one item and its recorded MRT value.
assay: Pharmacokinetic assay in Balb/c mice (plasma and brain tissue); assay type: in vivo; details: male, Balb/c, mouse, in vivo, po, 5 mg/kg, Mean residence time MRT
Numbers only here, please. The scale is h.

Below are worked cases with known answers.
C[C@@]1(O)CC[C@@]2(F)[C@H](CC[C@H]3[C@@H]4CC[C@H](C(=O)Cn5nc6ccc(F)cc6n5)[C@@]4(C)CC[C@@H]32)C1
5.5
C[C@@]1(O)CC[C@@]2(F)[C@H](CC[C@H]3[C@@H]4CC[C@H](C(=O)Cn5cc(C(F)(F)F)cn5)[C@@]4(C)CC[C@@H]32)C1
3.67
C[C@@]1(O)CC[C@@]2(F)[C@H](CC[C@H]3[C@@H]4CC[C@H](C(=O)Cn5ccc(C(F)(F)F)n5)[C@@]4(C)CC[C@@H]32)C1
1.94
C[C@@]1(O)CC[C@]2(F)C3CC[C@]4(C)[C@@H](C(=O)Cn5cc(C#N)c(Cl)n5)CC[C@H]4[C@@H]3CC[C@@H]2C1 (some centres unmarked)
2.65

Proceed to the following item.
Req: Indicate its recorded MRT; the compound in question is C[C@@]1(O)CC[C@@]2(F)[C@H](CC[C@H]3[C@@H]4CC[C@H](C(=O)CNc5ccc(F)cc5)[C@@]4(C)CC[C@@H]32)C1
Resp: 1.78

====

assay: Pharmacokinetic assay in Balb/c mice (plasma and brain tissue); assay type: in vivo; conditions: male, Balb/c, mouse, plasma, po, 5 mg/kg, Balb/c mice, 5 mg/kg p.o., plasma; read-out: Area under curve AUC0-∞
Experimental endpoint: AUC(0-inf) (ng·h/mL)
Numbers only here, please. The scale is ng·h/mL.

Req: Indicate its recorded AUC(0-inf); the compound in question is C[C@@]1(O)CC[C@@]2(F)[C@H](CC[C@H]3[C@@H]4CC[C@H](C(=O)Cn5cc(C#N)cn5)[C@@]4(C)CC[C@@H]32)C1
Resp: 2710

====

test system: GABA-A receptor; assay: 35S-TBPS binding assay on rat cerebral cortex cell membrane; set-up: species or system Sprague-Dawley rat; settings: 2 nM 35S-TBPS, GABA added, read-out: 35S-TBPS bindng test, IC50 on inhibiting the TBPS binding activity
Experimental endpoint: IC50 (nM)
Numbers only here, please. The scale is nM.

Below are worked cases with known answers.
C[C@@]1(O)CC[C@@]2(F)[C@H](CC[C@H]3[C@@H]4CC[C@H](C(=O)Cn5cc6c(n5)CCCC6)[C@@]4(C)CC[C@@H]32)C1 [Example 21]
36.1
C[C@@]1(O)CC[C@]2(F)C3CC[C@]4(C)[C@@H](C(=O)Cn5ncc(C6CC6)n5)CC[C@H]4[C@@H]3CC[C@@H]2C1 (stereo partly drawn) [Example 63]
25.8

Proceed to the following item.
Req: Lab note: GABA-A receptor assay, enter IC50 for COc1ccc2nn(CC(=O)[C@H]3CC[C@H]4[C@@H]5CC[C@@H]6C[C@](C)(O)CC[C@]6(F)[C@H]5CC[C@]34C)nc2c1 [Example 46] here
Resp: 5.6
